# TARGET OR SYSTEM: T1, Recombinant human PSGL-1(ECD)-hFc1 (R&D Systems, Cat. 3345-PS) (human, UniProt Q14242 42-305)
# T1 construct: Bought; Gln42-Val295 counted on AAC50061; also called PSGL-1-Fc; PSGL-1-hFc1 chimera; not shown: human IgG1 Fc, Pro100-Lys330
# T1 sequence: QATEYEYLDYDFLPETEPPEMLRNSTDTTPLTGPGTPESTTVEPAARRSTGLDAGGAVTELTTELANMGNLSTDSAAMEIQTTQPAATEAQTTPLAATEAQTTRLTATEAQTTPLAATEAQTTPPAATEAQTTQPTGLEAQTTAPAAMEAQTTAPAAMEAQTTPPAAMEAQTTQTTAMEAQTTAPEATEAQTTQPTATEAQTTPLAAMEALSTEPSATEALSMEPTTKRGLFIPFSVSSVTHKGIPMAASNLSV
# EXPERIMENT SUMMARY: ELISA, 50 nM mAb
MEASURED PARAMETER: A450nm (A450nm)

20I15 (antibody, V domains shown, From mouse immunisation; only variable domains given; also called 20115) VH: EVKLVESGGGLVQPGGSLSLSCAASGFTFTDYYMSWVRQPPGKALEWLGFIRNKANGYTTEYSASVKGRFTISRDNSQSILYLQMNALRAEDSATYYCARTYLRRGYFDVWGTGTTVTVSS VL: DIVLTQSPASLAVSLGQRATISCRASKSVSTSGYSYMHWFQQKPGQPPKLLIYLASNLESGVPARFSGSGSGTDFTLNIHPVEEEDAATYYCQHSRELPLTFGAGTKLELK | 2.45
06C04 (antibody, IgG4, V domains shown) VH: EVQLVESGGGLVQPGGSLRLSCAASGFTFSDHYMDWVRQAPGKGLEWVGRSRNKVKSYTTAYAASVEGRITISRDDSKNSLYLEMNSLKTEDTAVYYCVRVRWGGAFDIWGQGTMVTVSS VL: QPVLTQPPSASGSPGQSVTISCTGTSSDVGGYNYVSWYQQHPGKAPKLMIYEVSKRPSGVPDRFSGSKSGNTASLTVSGLQAEDEADYYCSSYAGSNNLRVFGGGTKLTVL | 2.22
18F02 (antibody, V domains shown, From mouse immunisation; only variable domains given) VH: QVQLQQPGAELVKPGASVKLSCKASGYTFTSYWMHWVKQRPGQGLEWIGMIHPNSGRTNYNEKFKSKATLTVDKSSSTAYMQLSSLTSEDSAVYYCARSDYWGQGTTLTVSS VL: DIVMTQAAFSNPVTLGTSASISCRSSKSLLHSDGITYLYWFLQRPGQSPQLLIYRMSNLASGVPDRFSGSGSGTDFTLRISRVEAEDVGVYYCAQMLEFPRTFGGGTKLEIK | 2.33

Sourced from patent US20220396632A1
